Assay: in vivo
Conditions: Sprague-Dawley, rat, plasma, po, 2 mg/kg
observed-property: AUC (ng·h/mL)

COCCOc1cnc(Nc2cnc(Cl)c(NS(C)(=O)=O)c2)c(-c2nc(C)nc(N)n2)c1; 1210

I = Cc1nc(N)nc(-c2cc(Cl)cnc2Nc2cnc(Cl)c(NS(=O)(=O)N(C)C)c2)n1
II = COc1cnc(Nc2cnc(Cl)c(NS(=O)(=O)N(C)C)c2)c(-c2nc(C)nc(N)n2)c1
Qu. // compare measured AUC between I and II ; output the lower one To answer, give the label that identifies your chosen option.
Ans. II
(II: 859 ng·h/mL, I: 3360 ng·h/mL)

* * *

Assay: Plasma protein binding in human
Assay type: ADME, cell-free
Details: read-out: PPB (converted)
observed-property: fraction unbound
Would you mind answering with just the numeric figure?

get_value(item= Cc1nc(N)nc(-c2cc(Cl)cnc2Nc2cnc(Cl)c(NS(=O)(=O)N(C)C)c2)n1 , readout=fraction unbound) returns 0.002

* * *

Test: Plasma protein binding in dog
Format: ADME, cell-free, Canis lupus familiaris
Settings: read-out: PPB (converted)
observed-property: fraction unbound
Would you mind answering with just the numeric figure?

get_value(item= Cc1nc(N)nc(-c2cc(Cl)cnc2Nc2cnc(Cl)c(NS(=O)(=O)N(C)C)c2)n1 , readout=fraction unbound) returns 0.0035

* * *

Molecular target: Phosphatidylinositol 4,5-bisphosphate 3-kinase catalytic subunit gamma isoform (Homo sapiens)
Sequence (P48736 whole entry, canonical isoform): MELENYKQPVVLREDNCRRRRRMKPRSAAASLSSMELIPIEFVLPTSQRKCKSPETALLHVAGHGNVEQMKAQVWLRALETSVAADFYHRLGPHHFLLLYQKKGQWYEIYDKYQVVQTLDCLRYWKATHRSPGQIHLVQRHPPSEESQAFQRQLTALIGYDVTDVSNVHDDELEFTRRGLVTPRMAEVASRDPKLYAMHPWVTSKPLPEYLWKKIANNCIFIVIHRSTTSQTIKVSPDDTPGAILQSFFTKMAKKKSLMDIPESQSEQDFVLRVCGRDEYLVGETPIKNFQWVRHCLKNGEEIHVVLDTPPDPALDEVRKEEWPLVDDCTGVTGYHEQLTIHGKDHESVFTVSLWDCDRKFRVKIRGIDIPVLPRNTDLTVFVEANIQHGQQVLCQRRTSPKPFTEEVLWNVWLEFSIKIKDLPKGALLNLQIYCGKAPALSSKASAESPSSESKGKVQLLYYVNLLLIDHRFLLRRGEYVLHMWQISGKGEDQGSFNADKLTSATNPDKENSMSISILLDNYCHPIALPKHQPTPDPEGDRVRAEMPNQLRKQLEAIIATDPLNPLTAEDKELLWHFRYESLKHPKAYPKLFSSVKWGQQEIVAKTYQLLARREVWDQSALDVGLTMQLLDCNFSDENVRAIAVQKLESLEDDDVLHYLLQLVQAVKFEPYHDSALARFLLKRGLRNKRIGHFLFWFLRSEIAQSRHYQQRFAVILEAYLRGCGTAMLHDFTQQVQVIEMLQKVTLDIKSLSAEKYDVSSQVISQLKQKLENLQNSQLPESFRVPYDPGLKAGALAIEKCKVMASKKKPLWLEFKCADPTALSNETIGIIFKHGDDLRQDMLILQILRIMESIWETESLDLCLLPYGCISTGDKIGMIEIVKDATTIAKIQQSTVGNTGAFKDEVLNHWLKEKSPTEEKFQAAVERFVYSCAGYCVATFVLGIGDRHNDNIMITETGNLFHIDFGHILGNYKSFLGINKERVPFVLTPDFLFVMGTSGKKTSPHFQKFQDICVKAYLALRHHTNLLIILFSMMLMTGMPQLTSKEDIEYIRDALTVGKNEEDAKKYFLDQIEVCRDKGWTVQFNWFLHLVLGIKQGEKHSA
pKi: −log10 of the molar value.
observed-property: pKi

Some compounds with known pKi results, for comparison:
Cc1nc(N)nc(-c2cccnc2Nc2cnc(Cl)c(NS(C)(=O)=O)c2)n1; 8.62
Cc1nc(N)nc(-c2cc(Cl)cnc2Nc2cnc(Cl)c(NS(=O)(=O)N(C)C)c2)n1; 9.00

1 = COCCOc1cnc(Nc2cnc(Cl)c(NS(C)(=O)=O)c2)c(-c2nc(C)nc(N)n2)c1
2 = COc1cnc(Nc2cnc(Cl)c(NS(=O)(=O)N(C)C)c2)c(-c2nc(C)nc(N)n2)c1
Qu. // compare measured pKi between 1 and 2 ; output the lower one To answer, give the label that identifies your chosen option.
Ans. 1

* * *

Target: Phosphatidylinositol 4,5-bisphosphate 3-kinase catalytic subunit delta isoform (Homo sapiens)
Sequence (O00329 whole entry, canonical isoform): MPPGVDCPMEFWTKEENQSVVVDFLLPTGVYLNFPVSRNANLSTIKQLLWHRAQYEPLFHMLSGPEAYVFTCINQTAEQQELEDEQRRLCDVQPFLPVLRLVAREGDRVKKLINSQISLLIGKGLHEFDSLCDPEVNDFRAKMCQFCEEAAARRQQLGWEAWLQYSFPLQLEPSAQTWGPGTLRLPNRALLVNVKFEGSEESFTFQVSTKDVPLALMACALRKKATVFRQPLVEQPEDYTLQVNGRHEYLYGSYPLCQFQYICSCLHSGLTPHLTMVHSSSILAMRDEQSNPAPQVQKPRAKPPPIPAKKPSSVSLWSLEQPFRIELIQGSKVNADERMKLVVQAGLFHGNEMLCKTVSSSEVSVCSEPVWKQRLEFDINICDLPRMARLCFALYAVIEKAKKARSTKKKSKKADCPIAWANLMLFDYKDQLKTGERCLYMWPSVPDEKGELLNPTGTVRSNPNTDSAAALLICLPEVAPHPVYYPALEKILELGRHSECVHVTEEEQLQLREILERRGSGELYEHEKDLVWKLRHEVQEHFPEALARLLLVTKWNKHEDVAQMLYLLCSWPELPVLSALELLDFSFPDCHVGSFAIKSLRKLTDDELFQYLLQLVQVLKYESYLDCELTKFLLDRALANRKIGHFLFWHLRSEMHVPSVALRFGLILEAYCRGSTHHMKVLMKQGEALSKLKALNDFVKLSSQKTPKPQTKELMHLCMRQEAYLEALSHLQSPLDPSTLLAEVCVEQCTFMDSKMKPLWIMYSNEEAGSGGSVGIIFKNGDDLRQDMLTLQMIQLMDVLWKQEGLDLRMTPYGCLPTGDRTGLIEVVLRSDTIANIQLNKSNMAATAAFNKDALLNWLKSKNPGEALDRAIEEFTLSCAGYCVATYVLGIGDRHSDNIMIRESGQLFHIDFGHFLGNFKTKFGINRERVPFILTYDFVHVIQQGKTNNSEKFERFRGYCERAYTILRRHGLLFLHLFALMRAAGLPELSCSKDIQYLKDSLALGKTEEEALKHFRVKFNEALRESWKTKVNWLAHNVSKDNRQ
observed-property: Ki (nM)

COCCOc1cnc(Nc2cnc(Cl)c(NS(C)(=O)=O)c2)c(-c2nc(C)nc(N)n2)c1; 6.1
Cc1nc(N)nc(-c2cccnc2Nc2cnc(Cl)c(NS(C)(=O)=O)c2)n1; 1.2

1 = COc1cnc(Nc2cnc(Cl)c(NS(=O)(=O)N(C)C)c2)c(-c2nc(C)nc(N)n2)c1
2 = Cc1nc(N)nc(-c2cc(Cl)cnc2Nc2cnc(Cl)c(NS(=O)(=O)N(C)C)c2)n1
Qu. // compare measured Ki between 1 and 2 ; output the lower one To answer, give the label that identifies your chosen option.
Ans. 2

* * *

Assay: physchem
Details: 0.01N HCl
Description: Equilibrium solubility of the compound in 0.01N HCl after 48 to 72 hrs
observed-property: solubility thermodynamic (µg/mL)

Some compounds with known solubility thermodynamic results, for comparison:
COc1cnc(Nc2cnc(Cl)c(NS(=O)(=O)N(C)C)c2)c(-c2nc(C)nc(N)n2)c1; 3
COc1cnc(Nc2cnc(Cl)c(NS(C)(=O)=O)c2)c(-c2nc(C)nc(N)n2)c1; 1
Cc1nc(N)nc(-c2cc(Cl)cnc2Nc2cnc(Cl)c(NS(C)(=O)=O)c2)n1; 1000

a = COc1cnc(Nc2cnc(Cl)c(NS(=O)(=O)N3CCOCC3)c2)c(-c2nc(C)nc(N)n2)c1
b = COCCN(C)S(=O)(=O)Nc1cc(Nc2ncc(Cl)cc2-c2nc(C)nc(N)n2)cnc1Cl
Qu. Exercise: compare a and b ; which one has the greater solubility thermodynamic? To answer, give the label that identifies your chosen option.
Ans. b
(b: 3200 µg/mL, a: 5 µg/mL)

* * *

Test: physchem
Conditions: simulated intestinal fluid
Description: Equilibrium solubility of the compound in simulated intestinal fluid after 48 to 72 hrs
observed-property: solubility thermodynamic (µg/mL)

Some molecules with known solubility thermodynamic results, for comparison:
Cc1nc(N)nc(-c2cc(Cl)cnc2Nc2cnc(Cl)c(NS(C)(=O)=O)c2)n1; 1000
Cc1nc(N)nc(-c2cccnc2Nc2cnc(Cl)c(NS(=O)(=O)c3ccc(F)cc3)c2)n1; 46200
Cc1nc(N)nc(-c2cc(Cl)cnc2Nc2cnc(Cl)c(NS(=O)(=O)N3CCOCC3)c2)n1; 11100
Cc1nc(N)nc(-c2cccnc2Nc2cnc(Cl)c(NS(=O)(=O)C3CC3)c2)n1; 3600
COCCOc1cnc(Nc2cnc(Cl)c(NS(C)(=O)=O)c2)c(-c2nc(C)nc(N)n2)c1; 43

a = COc1cnc(Nc2cnc(Cl)c(NS(=O)(=O)N(C)C)c2)c(-c2nc(C)nc(N)n2)c1
b = Cc1nc(N)nc(-c2cccnc2Nc2cnc(Cl)c(NS(=O)(=O)N(C)C)c2)n1
Qu. // compare measured solubility thermodynamic between a and b ; output the lower one To answer, give the label that identifies your chosen option.
Ans. a
(a: 1 µg/mL, b: 1000 µg/mL)

* * *

Assay: physchem
Details: phosphate buffered saline
Description: Equilibrium solubility of the compound in phosphate buffered saline after 48 to 72 hrs
observed-property: solubility thermodynamic (µg/mL)

Cc1nc(N)nc(-c2cc(Cl)cnc2Nc2cnc(Cl)c(NS(=O)(=O)N3CCOCC3)c2)n1; 1000

A = Cc1nc(N)nc(-c2cccnc2Nc2cnc(Cl)c(NS(C)(=O)=O)c2)n1
B = COCCOc1cnc(Nc2cnc(Cl)c(NS(C)(=O)=O)c2)c(-c2nc(C)nc(N)n2)c1
Qu. Exercise: compare A and B ; which one has the greater solubility thermodynamic? To answer, give the label that identifies your chosen option.
Ans. A
(A: 2900 µg/mL, B: 34 µg/mL)

I = Cc1nc(N)nc(-c2cccnc2Nc2cnc(Cl)c(NS(=O)(=O)c3ccc(F)cc3)c2)n1
II = COc1cnc(Nc2cnc(Cl)c(NS(C)(=O)=O)c2)c(-c2nc(C)nc(N)n2)c1
Qu. Exercise: compare I and II ; which one has the greater solubility thermodynamic? To answer, give the label that identifies your chosen option.
Ans. I

* * *

Experiment: physchem
Details: 0.01N HCl
observed-property: solubility thermodynamic (µg/mL)

Some compounds with known solubility thermodynamic results, for comparison:
Cc1nc(N)nc(-c2cc(CN3CCOCC3)cnc2Nc2cnc(Cl)c(NS(C)(=O)=O)c2)n1; 200
Cc1nc(N)nc(-c2cccnc2Nc2cnc(Cl)c(NS(=O)(=O)C3CC3)c2)n1; 1000
Cc1nc(N)nc(-c2cc(Cl)cnc2Nc2cnc(Cl)c(NS(=O)(=O)N(C)C)c2)n1; 1000

1 = Cc1nc(N)nc(-c2cccnc2Nc2cnc(Cl)c(NS(=O)(=O)N(C)C)c2)n1
2 = Cc1nc(N)nc(-c2cc(Cl)cnc2Nc2cnc(Cl)c(NS(=O)(=O)N3CCOCC3)c2)n1
3 = COCCOc1cnc(Nc2cnc(Cl)c(NS(C)(=O)=O)c2)c(-c2nc(C)nc(N)n2)c1
4 = Cc1nc(N)nc(-c2cc(CN3CCOCC3)cnc2Nc2cnc(Cl)c(NS(=O)(=O)N(C)C)c2)n1
Qu. Hey, quick one: sort these by solubility thermodynamic, largest value first please. Your task in answering is to list the labels in the requested order.
Ans. 1, 2, 4, 3

* * *

Assay: Plasma protein binding in rat
Assay type: ADME, cell-free
Conditions: read-out: PPB (converted)
observed-property: fraction unbound
Would you mind answering with just the numeric figure?

get_value(item= Cc1nc(N)nc(-c2cc(Cl)cnc2Nc2cnc(Cl)c(NS(=O)(=O)N(C)C)c2)n1 , readout=fraction unbound) returns 0.002

* * *

Assay: physchem
Settings: phosphate buffered saline
observed-property: solubility thermodynamic (µg/mL)

Some molecules with known solubility thermodynamic results, for comparison:
Cc1nc(N)nc(-c2cccnc2Nc2cnc(Cl)c(NS(=O)(=O)N(C)C)c2)n1; 3600
Cc1nc(N)nc(-c2cc(CN3CCOCC3)cnc2Nc2cnc(Cl)c(NS(=O)(=O)N(C)C)c2)n1; 11

P = COCCN(C)S(=O)(=O)Nc1cc(Nc2ncc(Cl)cc2-c2nc(C)nc(N)n2)cnc1Cl
Q = COc1cnc(Nc2cnc(Cl)c(NS(=O)(=O)N3CCOCC3)c2)c(-c2nc(C)nc(N)n2)c1
R = COc1cnc(Nc2cnc(Cl)c(NS(=O)(=O)N(C)C)c2)c(-c2nc(C)nc(N)n2)c1
Qu. Arrange the 3 entries by solubility thermodynamic so the values rise. Your task in answering is to list the labels in the requested order.
Ans. R, Q, P

I = Cc1nc(N)nc(-c2cccnc2Nc2cnc(Cl)c(NS(=O)(=O)C3CC3)c2)n1
II = Cc1nc(N)nc(-c2cc(CN3CCOCC3)cnc2Nc2cnc(Cl)c(NS(C)(=O)=O)c2)n1
III = Cc1nc(N)nc(-c2cc(Cl)cnc2Nc2cnc(Cl)c(NS(=O)(=O)N(C)C)c2)n1
Qu. Arrange the 3 entries by solubility thermodynamic so the values rise. Your task in answering is to list the labels in the requested order.
Ans. II, I, III

* * *

Molecular target: Phosphatidylinositol 4,5-bisphosphate 3-kinase catalytic subunit beta isoform (Homo sapiens)
Sequence (P42338 whole entry, canonical isoform): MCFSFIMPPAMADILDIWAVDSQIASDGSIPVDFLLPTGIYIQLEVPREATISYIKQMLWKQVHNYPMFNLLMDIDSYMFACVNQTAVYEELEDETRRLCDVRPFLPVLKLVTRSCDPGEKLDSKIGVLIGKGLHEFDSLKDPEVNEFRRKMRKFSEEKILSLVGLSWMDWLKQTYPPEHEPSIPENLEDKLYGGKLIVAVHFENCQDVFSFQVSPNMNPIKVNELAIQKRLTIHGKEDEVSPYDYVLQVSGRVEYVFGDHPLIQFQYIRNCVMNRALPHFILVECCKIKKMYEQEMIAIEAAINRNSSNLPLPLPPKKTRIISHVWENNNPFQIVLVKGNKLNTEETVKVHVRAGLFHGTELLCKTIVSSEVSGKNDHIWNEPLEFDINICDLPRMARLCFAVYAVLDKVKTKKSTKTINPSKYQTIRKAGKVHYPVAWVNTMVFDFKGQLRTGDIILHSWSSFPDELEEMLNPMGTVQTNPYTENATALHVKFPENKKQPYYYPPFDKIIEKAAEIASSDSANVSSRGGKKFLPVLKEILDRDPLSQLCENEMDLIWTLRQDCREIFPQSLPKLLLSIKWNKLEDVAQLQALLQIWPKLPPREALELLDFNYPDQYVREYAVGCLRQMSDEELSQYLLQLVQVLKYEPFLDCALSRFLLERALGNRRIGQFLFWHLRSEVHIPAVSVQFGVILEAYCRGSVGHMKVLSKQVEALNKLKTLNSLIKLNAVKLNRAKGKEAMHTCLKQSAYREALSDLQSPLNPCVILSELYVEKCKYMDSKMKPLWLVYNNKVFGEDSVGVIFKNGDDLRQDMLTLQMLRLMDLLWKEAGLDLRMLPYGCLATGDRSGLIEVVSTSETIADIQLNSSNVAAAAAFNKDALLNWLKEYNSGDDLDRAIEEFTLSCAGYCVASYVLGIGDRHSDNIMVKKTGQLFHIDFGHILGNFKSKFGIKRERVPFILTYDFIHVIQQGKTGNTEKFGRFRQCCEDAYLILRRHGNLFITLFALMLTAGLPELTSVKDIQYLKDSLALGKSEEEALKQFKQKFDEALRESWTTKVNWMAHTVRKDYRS
observed-property: Ki (nM)

COc1cnc(Nc2cnc(Cl)c(NS(=O)(=O)N(C)C)c2)c(-c2nc(C)nc(N)n2)c1; 4.7

A = COCCOc1cnc(Nc2cnc(Cl)c(NS(C)(=O)=O)c2)c(-c2nc(C)nc(N)n2)c1
B = Cc1nc(N)nc(-c2cccnc2Nc2cnc(Cl)c(NS(C)(=O)=O)c2)n1
C = Cc1nc(N)nc(-c2cc(Cl)cnc2Nc2cnc(Cl)c(NS(=O)(=O)N(C)C)c2)n1
Qu. Hey, quick one: sort these by Ki, largest value first please. Your task in answering is to list the labels in the requested order.
Ans. A, B, C
